target: T1, Anti-CD28 Fab (SEQ ID NOs: 202, 203); test: phage ELISA, Fab on plate, CD28 antigen as competitor
T1 construct: biotinylated and captured on neutravidin coated plates in the phage ELISA
T1 sequence (VH, as listed by the source, chain 1 of 2): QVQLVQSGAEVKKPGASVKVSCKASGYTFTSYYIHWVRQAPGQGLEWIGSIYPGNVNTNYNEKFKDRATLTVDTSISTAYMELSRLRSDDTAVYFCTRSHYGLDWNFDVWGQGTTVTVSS
T1 sequence (VL, as listed by the source, chain 2 of 2): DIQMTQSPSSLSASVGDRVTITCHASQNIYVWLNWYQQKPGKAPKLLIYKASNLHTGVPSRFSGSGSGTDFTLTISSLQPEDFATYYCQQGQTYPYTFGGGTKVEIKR
ENDPOINT NAME: Anti-CD28 Fab signal in the presence of CD28
Just the number, please, no unit attached.

Record YCEGHSEEYMAKCL [Phage-682] , field Anti-CD28 Fab signal in the presence of CD28: 0.07

Record YCDGHLPVYMTKCL [Phage-679] , field Anti-CD28 Fab signal in the presence of CD28: 0.07

Record YCDGHAPQYMAKCI [Phage-665] , field Anti-CD28 Fab signal in the presence of CD28: 0.06

Record YCDGHLMEYKAKCL [Phage-613] , field Anti-CD28 Fab signal in the presence of CD28: 0.06
